biological target: CDK5 CDK5R1 p25 (human) (UniProt Q00535+Q15078); assay: radiometric filter-binding kinase assay, Kinase HotSpot; conditions: compound 0.5 µM; ATP 10 µM
Sequence (Q00535 whole entry, looked up): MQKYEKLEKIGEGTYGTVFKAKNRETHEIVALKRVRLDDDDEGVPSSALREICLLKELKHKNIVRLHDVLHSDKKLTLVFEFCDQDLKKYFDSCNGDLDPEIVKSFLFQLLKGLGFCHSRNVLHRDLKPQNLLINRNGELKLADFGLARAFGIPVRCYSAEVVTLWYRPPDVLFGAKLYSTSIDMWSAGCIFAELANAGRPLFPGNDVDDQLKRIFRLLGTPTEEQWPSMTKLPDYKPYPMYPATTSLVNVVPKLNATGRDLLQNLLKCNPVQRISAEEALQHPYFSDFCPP
Sequence (Q15078 whole entry, looked up): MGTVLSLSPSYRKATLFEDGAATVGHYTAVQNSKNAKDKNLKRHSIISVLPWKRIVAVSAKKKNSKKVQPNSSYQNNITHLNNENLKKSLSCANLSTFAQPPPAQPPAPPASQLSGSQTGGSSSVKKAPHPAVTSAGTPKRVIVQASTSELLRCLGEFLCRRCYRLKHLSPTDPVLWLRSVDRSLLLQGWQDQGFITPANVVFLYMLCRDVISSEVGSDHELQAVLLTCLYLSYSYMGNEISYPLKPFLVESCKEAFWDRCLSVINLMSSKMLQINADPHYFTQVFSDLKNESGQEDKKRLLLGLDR

| Compound Structure | residual activity, % |
| --- | --- |
| CN(C)C[C@H]1CCn2c(c(C3=C(c4cn(C)c5ccccc45)C(=O)NC3=O)c3ccccc32)C1 | 84.7 |
| COc1cc2ncc(-c3ccccc3)nc2cc1OC | 94.6 |
| Cc1ccc(NC(=O)c2ccc(CN3CCN(C)CC3)cc2)cc1Nc1nccc(-c2cccnc2)n1 | 98.1 |
| O=C(Nc1cccc(Nc2cc(Nc3cccc(C(F)(F)F)c3)ncn2)c1)C1CC1 | 99.5 |
| COc1ccc(CNC(=O)Nc2ncc([N+](=O)[O-])s2)cc1 | 97.7 |
| O=C(O)/C=C/c1cc(Br)c(Br)c(Br)c1Br | 84.1 |
| COc1ccc(OC)c2c(=S)c3ccccc3[nH]c12 | 85.4 |
| Nc1nccc(-c2c(-c3ccc(F)cc3)ncn2C2CCNCC2)n1 | 95.4 |
| Cn1nc2c3c(cccc31)C(=O)c1ccccc1-2 | 92.2 |
| O=C1NC(=O)C(c2cn(CCCO)c3ncccc23)=C1c1cnccn1 | 103 |
| CN([C@@H](Cc1ccc(OS(=O)(=O)c2cccc3cnccc23)cc1)C(=O)N1CCN(c2ccccc2)CC1)S(=O)(=O)c1cccc2cnccc12 | 93.5 |
| Nc1nnc2[nH]c3ccccc3nc1-2 | 85.4 |
| Cn1sc(=O)n(Cc2ccccc2)c1=O | 103 |
| CC(=O)O/N=C1\C(=C2\C(=O)Nc3cc(Br)ccc32)Nc2ccccc21 | 51.4 |
| O=C1NC(=O)C(c2c[nH]c3ccccc23)=C1c1c[nH]c2ccccc12 | 87.4 |
| Oc1ccc(Nc2nc(-c3ccc(Cl)cc3)cs2)cc1 | 85.9 |
| COc1cc2ncnc(N3CCN(C(=O)Nc4ccc(Oc5ccccc5)cc4)CC3)c2cc1OC | 77.1 |
| c1cc(-c2cnn3cc(-c4ccc(OCCN5CCCCC5)cc4)cnc23)ccn1 | 68.2 |
| O=C1NC(=O)/C(=C\c2ccc3nccnc3c2)S1 | 83.2 |
| Cn1cnc2cc3c(Nc4cccc(Br)c4)ncnc3cc21 | 88 |
| Cc1nc2cc3nc(-c4cccs4)cnc3cc2n1C | 99.3 |
| CCN(CC)CCCCN1c2ccccc2Oc2ccc(Cl)cc21 | 91 |
| O=C1Nc2ccccc2/C1=C1\Nc2ccccc2\C1=N/O | 28.7 |

---

target: ERBB2 (human); experiment: radiometric filter-binding kinase assay, Kinase HotSpot; settings: compound 0.5 µM; ATP 10 µM
Metric Name: residual activity (%)

| Compound Structure | Measured Value |
| --- | --- |
| O=C1NC(=O)C(c2cn(CCCO)c3ncccc23)=C1c1cnccn1 | 106 |
| O=C1NC(=O)C(c2c[nH]c3ccccc23)=C1c1c[nH]c2ccccc12 | 94.3 |
| COc1cc2ncnc(N3CCN(C(=O)Nc4ccc(Oc5ccccc5)cc4)CC3)c2cc1OC | 100 |
| Cn1cnc2cc3c(Nc4cccc(Br)c4)ncnc3cc21 | 47.4 |

---

target: MYLK2 (human) (UniProt Q9H1R3); experiment: radiometric filter-binding kinase assay, Kinase HotSpot; settings: compound 0.5 µM; ATP 10 µM
Sequence (Q9H1R3 whole entry, looked up): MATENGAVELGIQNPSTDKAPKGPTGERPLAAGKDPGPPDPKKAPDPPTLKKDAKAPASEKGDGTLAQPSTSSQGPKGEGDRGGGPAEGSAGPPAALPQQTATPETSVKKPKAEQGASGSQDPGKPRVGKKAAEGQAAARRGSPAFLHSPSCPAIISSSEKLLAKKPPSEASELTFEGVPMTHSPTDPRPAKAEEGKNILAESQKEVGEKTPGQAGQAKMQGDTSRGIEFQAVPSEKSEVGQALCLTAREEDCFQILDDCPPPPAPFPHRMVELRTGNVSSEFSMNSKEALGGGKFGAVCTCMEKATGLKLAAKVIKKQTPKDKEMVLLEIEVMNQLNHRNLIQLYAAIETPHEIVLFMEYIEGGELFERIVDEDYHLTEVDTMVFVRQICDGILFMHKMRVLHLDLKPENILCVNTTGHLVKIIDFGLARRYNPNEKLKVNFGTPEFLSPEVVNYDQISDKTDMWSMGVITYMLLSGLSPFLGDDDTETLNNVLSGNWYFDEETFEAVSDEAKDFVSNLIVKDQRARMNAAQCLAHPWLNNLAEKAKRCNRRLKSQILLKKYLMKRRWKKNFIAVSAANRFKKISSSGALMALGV
Measured residual activity, listed per entry.

| Compound Structure | residual activity, % |
| --- | --- |
| Nc1nnc2[nH]c3ccccc3nc1-2 | 90.5 |
| Cn1nc2c3c(cccc31)C(=O)c1ccccc1-2 | 78.8 |
| O=C1NC(=O)/C(=C\c2ccc3nccnc3c2)S1 | 97.2 |
| O=C(CCCc1ccc(-c2ccccc2F)cc1)Nc1ccc(O)cc1 | 97.8 |
| Nc1nccc(-c2c(-c3ccc(F)cc3)ncn2C2CCNCC2)n1 | 103 |
| COc1ccc(CNC(=O)Nc2ncc([N+](=O)[O-])s2)cc1 | 98.5 |
| CC(=O)O/N=C1\C(=C2\C(=O)Nc3cc(Br)ccc32)Nc2ccccc21 | 55 |
| Cn1sc(=O)n(Cc2ccccc2)c1=O | 101 |
| CCN(CC)CCCCN1c2ccccc2Oc2ccc(Cl)cc21 | 104 |
| COc1cc2ncnc(N3CCN(C(=O)Nc4ccc(Oc5ccccc5)cc4)CC3)c2cc1OC | 94.6 |
| Cn1cnc2cc3c(Nc4cccc(Br)c4)ncnc3cc21 | 87.6 |
| Oc1ccc(Nc2nc(-c3ccc(Cl)cc3)cs2)cc1 | 97.1 |
| CC(C)[C@H](CO)Nc1nc(Nc2cc(N)cc(Cl)c2)c2ncn(C(C)C)c2n1 | 99.5 |
| O=C(O)/C=C/c1cc(Br)c(Br)c(Br)c1Br | 86.8 |
| COc1ccc(OC)c2c(=S)c3ccccc3[nH]c12 | 95.7 |
| CCn1cnc2c(Nc3cccc(Cl)c3)nc(N[C@@H]3CCCC[C@@H]3N)nc21 | 95.2 |
| O=C1NC(=O)C(c2c[nH]c3ccccc23)=C1c1c[nH]c2ccccc12 | 91.9 |

---

target: CHUK (human); assay: radiometric filter-binding kinase assay, Kinase HotSpot; conditions: compound 0.5 µM; ATP 10 µM
Measured residual activity, listed per entry.
Metric Name: residual activity (%)

| Compound | Subject Of Test | Metric Name | Measured Value |
| --- | --- | --- | --- |
| O=C1Nc2ccccc2/C1=C1/Nc2ccccc2/C1=N\OCCC(O)CO (centres undefined) | CHUK (human) | residual activity | 96.6 |
| Nc1nnc2[nH]c3ccccc3nc1-2 | CHUK (human) | residual activity | 85.9 |
| Cn1nc2c3c(cccc31)C(=O)c1ccccc1-2 | CHUK (human) | residual activity | 97 |
| COc1cc2ncnc(N3CCN(C(=O)Nc4ccc(Oc5ccccc5)cc4)CC3)c2cc1OC | CHUK (human) | residual activity | 96 |

---

biological target: TSSK1B (human) (UniProt Q9BXA7); experiment: radiometric filter-binding kinase assay, Kinase HotSpot; settings: compound 0.5 µM; ATP 10 µM
Sequence (Q9BXA7 whole entry, looked up): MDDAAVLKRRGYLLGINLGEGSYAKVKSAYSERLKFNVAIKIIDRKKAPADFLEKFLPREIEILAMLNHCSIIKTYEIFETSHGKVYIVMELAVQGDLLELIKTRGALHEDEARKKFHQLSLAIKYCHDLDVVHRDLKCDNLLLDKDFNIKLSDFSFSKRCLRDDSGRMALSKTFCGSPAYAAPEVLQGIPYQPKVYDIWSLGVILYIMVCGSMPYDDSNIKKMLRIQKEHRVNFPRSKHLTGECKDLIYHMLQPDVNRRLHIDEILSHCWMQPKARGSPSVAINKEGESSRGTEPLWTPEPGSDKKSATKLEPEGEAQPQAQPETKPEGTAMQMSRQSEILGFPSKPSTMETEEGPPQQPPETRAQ
Metric Name: residual activity (%)

| Compound Structure | Metric Name | Measured Value |
| --- | --- | --- |
| Nc1nnc2[nH]c3ccccc3nc1-2 | residual activity | 95.4 |
| COc1cc2ncnc(N3CCN(C(=O)Nc4ccc(Oc5ccccc5)cc4)CC3)c2cc1OC | residual activity | 65.2 |
| CC(C)[C@H](CO)Nc1nc(Nc2cc(N)cc(Cl)c2)c2ncn(C(C)C)c2n1 | residual activity | 91.3 |
| CCN(CC)CCCCN1c2ccccc2Oc2ccc(Cl)cc21 | residual activity | 96.7 |
| Cn1nc2c3c(cccc31)C(=O)c1ccccc1-2 | residual activity | 98.4 |
| COc1ccc(CNC(=O)Nc2ncc([N+](=O)[O-])s2)cc1 | residual activity | 106 |
| O=C1NC(=O)C(c2cn(CCCO)c3ncccc23)=C1c1cnccn1 | residual activity | 94.9 |
| Oc1ccc(Nc2nc(-c3ccc(Cl)cc3)cs2)cc1 | residual activity | 119 |
| O=C1Cc2c([nH]c3ccc(Br)cc23)-c2ccccc2N1 | residual activity | 80.4 |
| Nc1nccc(-c2c(-c3ccc(F)cc3)ncn2C2CCNCC2)n1 | residual activity | 106 |
| CC(=O)O/N=C1\C(=C2\C(=O)Nc3cc(Br)ccc32)Nc2ccccc21 | residual activity | 92.4 |

---

target: MAPK1 (human); assay: radiometric filter-binding kinase assay, Kinase HotSpot; conditions: compound 0.5 µM; ATP 10 µM

| Compound | residual activity, % |
| --- | --- |
| Cn1sc(=O)n(Cc2ccccc2)c1=O | 93.1 |
| Cn1cnc2cc3c(Nc4cccc(Br)c4)ncnc3cc21 | 94.2 |
| O=C1Nc2ccccc2/C1=C1\Nc2ccccc2\C1=N/O | 96.6 |
| O=C1NC(=O)C(c2cn(CCCO)c3ncccc23)=C1c1cnccn1 | 81.9 |
| O=C1Nc2ccccc2/C1=C1/Nc2ccccc2/C1=N\OCCC(O)CO (stereo unspecified) | 89.8 |
| O=C(CCCc1ccc(-c2ccccc2F)cc1)Nc1ccc(O)cc1 | 69.9 |
| Oc1ccc(Nc2nc(-c3ccc(Cl)cc3)cs2)cc1 | 106 |
| COc1cc2ncnc(N3CCN(C(=O)Nc4ccc(Oc5ccccc5)cc4)CC3)c2cc1OC | 83.9 |
| O=C(Nc1cccc(Nc2cc(Nc3cccc(C(F)(F)F)c3)ncn2)c1)C1CC1 | 101 |
| COc1ccc(CNC(=O)Nc2ncc([N+](=O)[O-])s2)cc1 | 104 |
| O=C(O)/C=C/c1cc(Br)c(Br)c(Br)c1Br | 98.5 |
| CCN(CC)CCCCN1c2ccccc2Oc2ccc(Cl)cc21 | 84.7 |
| CN([C@@H](Cc1ccc(OS(=O)(=O)c2cccc3cnccc23)cc1)C(=O)N1CCN(c2ccccc2)CC1)S(=O)(=O)c1cccc2cnccc12 | 95.5 |
| O=C1NC(=O)/C(=C\c2ccc3nccnc3c2)S1 | 85.2 |
| O=C1Cc2c([nH]c3ccc(Br)cc23)-c2ccccc2N1 | 90.5 |
| CC(=O)O/N=C1\C(=C2\C(=O)Nc3cc(Br)ccc32)Nc2ccccc21 | 87.9 |
